Tested on: MCF7 breast
Assay: NCI tumour cell line growth inhibition, 48 h; in the data active = GI50 below about 0.43 µM; inactive = the rest
*1 amine or outer side, *2 acyl side, *3 side chain or, on linkers, in order; H or OH if unused. Where a SMILES comes first, the peptide text is derived from it. Bridges are numbered along the chain shown (N, C = ends). Roman numbers before positions name the chains, in order. [ ]: non-standard residue; d: D form. Actinocin(9to1) = Cc1c2oc3c(C)ccc(C(=O)[*:1])c3nc-2c(C(=O)[*:2])c(N)c1=O; NMeF = CN[CH](Cc1ccccc1)C(=O)O; Sar = CNCC(=O)O
Result category, one only: active, inactive

COC(=O)C(C)NC(=O)c1ccccc1I(OS(=O)(=O)C(F)(F)F)c1ccccc1 (stereo unspecified)
inactive

Exercise: Given `O=c1oc2c(C(F)(F)F)cccc2cc1-c1csc(Nc2ccc(OCCF)cc2)n1` , state the outcome it received in this test.
Key: active

Exercise: How was N#CC1C=Cc2c(ccc3ccccc23)N1C(=O)c1ccccc1 (stereo unspecified) classified in this test?
Key: active

Exercise: Dear colleague, could you share the recorded outcome for `NC(=S)NN=C1CSSC1` when you have a moment?
Key: inactive

Exercise: Recorded call for `COc1cccc2c1n([O-])c1cccc(OC)c1[n+]2=O` ?
Key: inactive

Exercise: What did this assay record as the result for Cc1c2oc3c(C)ccc(C(=O)NC4C(=O)NC(C(C)C)C(=O)N5CCCC5C(=O)N(C)CC(=O)N(C)C(Cc5ccccc5)C(=O)OC4C)c3nc-2c(C(=O)NC2C(=O)NC(C(C)C)C(=O)N3CCCC3C(=O)N(C)CC(=O)N(C)C(Cc3ccccc3)C(=O)OC2C)c(N)c1=O (stereo unspecified) (I: TVP[Sar][NMeF] / II: TVP[Sar][NMeF]; ester I:1-I:C, II:1-II:C; linker I:N-II:N via Actinocin(9to1); configuration not given here) ?
Key: active

###

compounds and their reported TGI
Test system: LOX IMVI melanoma
Assay: NCI tumour cell line growth inhibition, 48 h
*1 amine or outer side, *2 acyl side, *3 side chain or, on linkers, in order; H or OH if unused. Where a SMILES comes first, the peptide text is derived from it. Bridges are numbered along the chain shown (N, C = ends). Roman numbers before positions name the chains, in order. [ ]: non-standard residue; d: D form. Actinocin(9to1) = Cc1c2oc3c(C)ccc(C(=O)[*:1])c3nc-2c(C(=O)[*:2])c(N)c1=O; NMeF = CN[CH](Cc1ccccc1)C(=O)O; Sar = CNCC(=O)O

Solved cases below.
O=[N+]([O-])C(Cl)=C/C(=C(\Cl)SCc1ccccc1)[N+](=O)[O-]
33.6 µM
NNC(=O)C(=O)N/N=C(\CCC(=O)Nc1ccc(Cl)cc1)Cc1nc2ccccc2s1
67.5 µM
C[C@]12CCC(=O)C=C1CC[C@@H]1C2CC[C@]2(C)c3nn(-c4ccccc4)nc3CC12 (stereo partly drawn)
> 100 µM

Value of measured TGI for the entry O=S1Nc2c(Cl)cc(Cl)c(Cl)c2S1 (stereo not drawn) : > 100 µM

Record summary for `CC1(C)N=C(c2ccccn2)C(c2ccccn2)=NC1(C)C` : reported TGI = > 100 µM

Notebook: `CC(=C/c1ccccc1)/C=C1/NC(=S)N(/C=C2\C(=O)Oc3ccccc3C2=O)C1=O` , TGI read as > 100 µM

Sample Cc1c2oc3c(C)ccc(C(=O)NC4C(=O)NC(C(C)C)C(=O)N5CCCC5C(=O)N(C)CC(=O)N(C)C(Cc5ccccc5)C(=O)OC4C)c3nc-2c(C(=O)NC2C(=O)NC(C(C)C)C(=O)N3CCCC3C(=O)N(C)CC(=O)N(C)C(Cc3ccccc3)C(=O)OC2C)c(N)c1=O (stereo not drawn) (I: TVP[Sar][NMeF] / II: TVP[Sar][NMeF]; ester I:1-I:C, II:1-II:C; linker I:N-II:N via Actinocin(9to1); configuration not given here) ; TGI observed: < 0.01 µM

So, `O=C(O)C(Oc1nc(=S)[nH]c(=S)[nH]1)(c1ccc(Cl)cc1)c1ccc(Cl)cc1` ? Its TGI was > 100 µM

###

System: RXF-631 renal
Assay: NCI tumour cell line growth inhibition, 48 h
property.label: TGI

O=C1CSc2cc([N+](=O)[O-])ccc2N1
> 100 µM

TGI reported for this compound `Cn1cccc1/C=C/c1cc(Br)c(/C=C/c2cccn2C)cc1Br` : 49.4 µM

Lookup result for `O=C1/C(=C/c2ccc(Br)cc2)CCC/C1=C\c1ccc(Br)cc1` ; measured TGI: 18.1 µM

###

System: SF-539 CNS
Experiment: NCI tumour cell line growth inhibition, 48 h; in the data active = GI50 below about 0.43 µM; inactive = the rest
Result category, one only: active, inactive

Example results:
O=C1C(Cl)=C(Nc2cccc(O)c2)C(=O)N1Cc1ccc(Cl)cc1Cl
inactive
CC(=O)c1nc2ccccc2n1CC(=O)c1cccc(Cl)c1
active
COc1cccc2c1n([O-])c1cccc(OC)c1[n+]2=O
inactive
CC[C@H](C)C(=O)O[C@H]1C[C@H](O)C=C2C=C[C@H](C)[C@H](CC[C@@H](O)C[C@@H](O)CC(=O)O)[C@H]21
inactive
C[C@@H](Nc1nc(Nc2ccc(F)c(Cl)c2)nc2ccccc12)C1CC1
inactive

Exercise: Which outcome did this test record for the compound `Cc1cc(C(=O)c2ccccc2)c(C)c2c1[nH]c1ccc(Cl)cc12` ?
Key: active

Exercise: Called result for `CC(C)(C)c1ccc(NS(=O)(=O)c2ccc3nc(NC(=O)c4cnccn4)[nH]c3c2)cc1`
Key: inactive

Exercise: Kindly provide the recorded test outcome for the following compound: `N.N.O=P([O-])([O-])C1(P(=O)([O-])[O-])CCCCCN1.[Pt+2]`
Key: inactive

###

Test system: RXF 393 renal
Experiment: NCI tumour cell line growth inhibition, 48 h
Collected TGI values appear next to each entry.

Consider the reported TGI for these compounds:
CC(C)(C)[Si](C)(C)OCC1OC(n2cnc3c(=O)[nH]c(N)nc32)C(O[Si](C)(C)C(C)(C)C)C1O[Si](C)(C)C(C)(C)C (stereo unspecified)
4.69 µM
O=c1ccc2nc(-c3ccccn3)nn(-c3ccccc3)c-2c1
3.01 µM

Recorded TGI for `COc1ccc2c(c1)OC[C@@H]1c3cc(O)c(OCc4ccccc4)cc3O[C@H]21` on RXF 393 renal was 93.2 µM

Record `N#CC(C#N)=C1C(=O)NC(N)=C1C#N` has RXF 393 renal TGI equal to > 100 µM

Record `CN(C)C(=O)Oc1c(-c2ccccc2)c(=O)n2c3ccccc3n3c(=O)n(C)c(=O)c1c23` ; system RXF 393 renal; TGI = > 100 µM

###

Overview of reported TGI across a group of compounds:
Tested on: SN12C renal
Assay: NCI tumour cell line growth inhibition, 48 h

Consider the worked cases shown below.
CC(=O)/C(=C/N1CCNC1=S)C(=O)Nc1ccccc1C
> 100 µM
[N-]=[N+]=C(C(=O)N1CCCC1=O)S(=O)(=O)c1ccccc1
> 100 µM
Cn1cccc1/C=C/c1cc(Br)c(/C=C/c2cccn2C)cc1Br
72.4 µM
O=C(CCCCC(=O)N/N=C\c1ccccc1O)N/N=C\c1ccccc1O
> 100 µM
CCCCCCCCCCCCCC(=O)N(CCCCCCCCC)CC(O)C(O)C(OC1OC(CO)C(O)C(O)C1O)C(O)CO (configuration not stated)
37.1 µM
O=C1C(Cl)=C(Nc2cccc(O)c2)C(=O)N1Cc1ccc(Cl)cc1Cl
15.1 µM
CC(C)(C)OC(=O)NCC(=O)N1CCN(C(=O)CNC(=O)OC(C)(C)C)CC1
> 100 µM
Oc1cc(Br)cc2cc(Cl)cnc12
45.1 µM

Value of measured TGI for the entry `COc1c(B(O)O)cc(F)cc1-c1nc2ccc3[nH]ncc3c2c2c1CCCC2` : 15.3 µM

Sample CC(C)=CCCC(C)C1=C(O)C(=O)C(C)=CC1=O (configuration not stated) ; TGI observed: 34.6 µM

Recorded TGI (compound `CC(=O)[CH-]C(=O)c1ccccc1.CC(=O)[CH-]C(=O)c1ccccc1.CC[O-].O=C1c2ccccc2C(=O)c2c1ccc(O)c2[O-].[Ti+4]` ): > 100 µM

Value of measured TGI for the entry `O=C(/C=C\c1cccc2ccccc12)c1cccc2ccccc12` : > 100 µM

The compound listed as O=S1Nc2c(Cl)cc(Cl)c(Cl)c2S1 (configuration not stated) shows TGI equal to > 100 µM

Sure, the documented TGI for `O=C(O)C(=O)/C=C(\O)c1ccc(Br)cc1` is > 100 µM

O=C1CC2CCC(C1)S2=O (configuration not stated) has a reported TGI of > 100 µM

Just so you know, measured TGI for `O=C1NCCS(=O)(=O)N2CCC[C@@H]12` came out at > 100 µM

compound `CC1=C(C)C(=O)C(C2=CC(=O)C=CC2=O)=C(C2=CC(=O)C=CC2=O)C1=O` , TGI observed: > 71.8 µM

Input `Cc1c(Cl)cccc1NC(=O)c1sc2nc3c(cc2c1N)CCCCC3` . Output TGI: > 50 µM

compound `Cc1ccc(C(=O)CC2=Nc3nnc(CCCCCCCc4nnc5n4C(=O)C(CC(=O)c4ccc(C)cc4)=N5)n3C2=O)cc1` , TGI observed: > 100 µM

Briefly, TGI measured for CCCCCCCCCCCCCCCCCC(=O)Nc1ccn(C2OC(CO)C(O)C2O)c(=O)n1 (configuration not stated) : > 100 µM

Reported TGI ( `CCOC(=O)C(NC(=O)OC(C)(C)C)C(=O)OCC` ) = > 100 µM

The recorded TGI for `O=C(O)C(Oc1nc(=S)[nH]c(=S)[nH]1)(c1ccc(Cl)cc1)c1ccc(Cl)cc1` is > 100 µM
